- Test system: NIH3T3
- assay protocol: Cytotoxic Profiling of Annotated Libraries Using Quantitative High-Throughput Screening (AID 1296008); note: % is set by controls: 0 for no effect and ±100 for the full control effect; nearly all actives have a fitted effect of over 60% in size
- condition description: Five cell lines viability, CellTiter-Glo ATP luminescence, 48-72 h; hits give low values
Records with an inconclusive call do not appear.
measured parameter: max response (%)

{"compound": "COCCCOc1cc(C[C@@H](C[C@H](N)[C@@H](O)C[C@H](C(=O)NCC(C)(C)C(N)=O)C(C)C)C(C)C)ccc1OC", "reported measurement": -0.804}
{"compound": "Cc1oc(=O)oc1CN1CCN(c2cc3c(cc2F)c(=O)c(C(=O)O)c2n3C(C)S2)CC1 (stereo not drawn)", "reported measurement": -0.29}
{"compound": "COc1cccc(N(C)C(=S)Oc2ccc3c(c2)CCCC3)n1", "reported measurement": 2.09}
{"compound": "CC1=CC(=O)c2ccccc2C1=O", "reported measurement": -2.61}
{"compound": "CCC(=O)O[C@]1(C(=O)CCl)[C@@H](C)C[C@H]2[C@@H]3CCC4=CC(=O)C=C[C@]4(C)[C@@]3(F)[C@@H](O)C[C@@]21C", "reported measurement": -2.25}
{"compound": "CCOC(=O)c1ccc(C#Cc2ccc3c(c2)C(C)(C)CCS3)nc1", "reported measurement": -3.55}
{"compound": "O=c1oc2c(O)c(O)cc3c(=O)oc4c(O)c(O)cc1c4c23", "reported measurement": 2.17}
{"compound": "O=C(O)CSCC(=O)NC1CCSC1=O (stereo not drawn)", "reported measurement": 2.01}
{"compound": "CC(=O)[C@H]1CC[C@H]2[C@@H]3CCC4=CC(=O)CC[C@]4(C)[C@H]3CC[C@]12C", "reported measurement": -0.969}
{"compound": "CC1=NN(c2ccccc2)C(=O)C1", "reported measurement": 2.82}
{"compound": "NCCCC(O)(P(=O)(O)O)P(=O)(O)O", "reported measurement": 0.802}
{"compound": "CCOc1cc(N)c(Cl)cc1C(=O)NCC1CN(Cc2ccc(F)cc2)CCO1 (stereo not drawn)", "reported measurement": 1.17}
{"compound": "CC(C)(Sc1cc(C(C)(C)C)c(O)c(C(C)(C)C)c1)Sc1cc(C(C)(C)C)c(O)c(C(C)(C)C)c1", "reported measurement": 1.18}
{"compound": "NNC(=O)c1ccncc1", "reported measurement": 1.44}
{"compound": "O=C(O)c1cc(=O)[nH]c(=O)[nH]1", "reported measurement": 3.37}
{"compound": "CNC1CCCN(c2c(F)cc3c(=O)c(C(=O)O)cn(C4CC4)c3c2OC)C1 (stereo not drawn)", "reported measurement": -6.02}
{"compound": "COC(c1ccccc1)(c1ccccc1)[C@H](Oc1nc(C)cc(C)n1)C(=O)O", "reported measurement": -19.9}
{"compound": "CCN1CCCC1CNC(=O)c1cc(S(N)(=O)=O)ccc1OC (stereo not drawn)", "reported measurement": -4.16}
{"compound": "CC[C@H](C)C(=O)O[C@H]1C[C@@H](C)C=C2C=C[C@H](C)[C@H](CC[C@@H]3C[C@@H](O)CC(=O)O3)[C@H]21", "reported measurement": -16.3}
{"compound": "S=P(N1CC1)(N1CC1)N1CC1", "reported measurement": -7.91}
{"compound": "Cc1cc(NS(=O)(=O)c2ccc(N)cc2)no1", "reported measurement": -3.95}
{"compound": "NC(=O)c1ccc2[nH]ccc2c1", "reported measurement": -9.23}
{"compound": "CN1CCCC(n2nc(Cc3ccc(Cl)cc3)c3ccccc3c2=O)CC1 (stereo not drawn)", "reported measurement": 5}
